Experiment: Plasma stability assay, rat plasma
Assay type: in vitro ADME
Details: 37° C., 10 μM, 480 min
Reported % remaining at time point in minutes, 480 min values for the following molecules.
Quantity name: % remaining at time point in minutes, 480 min (%)

INSERT INTO results (molecule, reported_result) VALUES
  ('CCCCC/C=C\C/C=C\CCCCCCCC(=O)Oc1ccc2c3c1O[C@H]1C(=O)CC[C@@]4(O)C(C2)N(CC2CC2)CC[C@]314', 7.3),
  ('CCCCCCCCCCCCCCCCOC(=O)Oc1ccc2c3c1O[C@H]1C(=O)CC[C@@]4(O)C(C2)N(CC2CC2)CC[C@]314', 59.8),
  ('C=C1CC[C@@]2(O)C3Cc4ccc(OC(=O)CCCCCCC/C=C\CCCCCCCC)c5c4[C@@]2(CCN3CC2CC2)[C@H]1O5', 39.8),
  ('C=C1CC[C@@]2(O)C3Cc4ccc(OC(=O)OCCCCCCCCCCCCC)c5c4[C@@]2(CCN3CC2CC2)[C@H]1O5', 30.5),
  ('C=C1CC[C@@]2(O)C3Cc4ccc(OCOC(=O)OCCCCCCCCCCCCCC)c5c4[C@@]2(CCN3CC2CC2)[C@H]1O5', 62.2),
  ('CCCCCCCCCCCCCCC(=O)Oc1ccc2c3c1O[C@H]1C(=O)CC[C@@]4(O)C(C2)N(CC2CC2)CC[C@]314', 2.9),
  ('CCCCCCCCCCCCCC(=O)Oc1ccc2c3c1O[C@H]1C(=O)CC[C@@]4(O)C(C2)N(CC2CC2)CC[C@]314', 1.2),
  ('CCCCCCCCCCCCCCCC(=O)Oc1ccc2c3c1O[C@H]1C(=O)CC[C@@]4(O)C(C2)N(CC2CC2)CC[C@]314', 27.1),
  ('CCCCCCCCCCCCCCCCCCCCCC(=O)Oc1ccc2c3c1O[C@H]1C(=O)CC[C@@]4(O)C(C2)N(CC2CC2)CC[C@]314', 88.2),
  ('C=C1CC[C@@]2(O)C3Cc4ccc(OC(=O)CCCCCCCCCCCCCCC)c5c4[C@@]2(CCN3CC2CC2)[C@H]1O5 [Compound 56, reference compound]', 35.8),
  ('C=C1CC[C@@]2(O)C3Cc4ccc(OC(=O)CCCCCCCCCCCCCCCCCCCCC)c5c4[C@@]2(CCN3CC2CC2)[C@H]1O5', 107),
  ('C=C1CC[C@@]2(O)C3Cc4ccc(OC(=O)OCCCCCCCCCCCCCC)c5c4[C@@]2(CCN3CC2CC2)[C@H]1O5', 54.4),
  ('C=C1CC[C@@]2(O)C3Cc4ccc(OC(=O)CCCCCCC/C=C/CCCCCCCC)c5c4[C@@]2(CCN3CC2CC2)[C@H]1O5', 52),
  ('CCCCCCCCCCCCOC(=O)Oc1ccc2c3c1O[C@H]1C(=O)CC[C@@]4(O)C(C2)N(CC2CC2)CC[C@]314', 0.2),
  ('CCCCCCCCCCCC(=O)OCN1C(=O)CCc2ccc(OCCCCN3CCN(c4cccc(Cl)c4Cl)CC3)cc21 [Aripiprazole lauroxil, reference compound]', 76.4),
  ('CCCCCCCCOC(=O)Oc1ccc2c3c1O[C@H]1C(=O)CC[C@@]4(O)C(C2)N(CC2CC2)CC[C@]314', 0),
  ('CCCCCCCCCCCCCCCCCCCC(=O)Oc1ccc2c3c1O[C@H]1C(=O)CC[C@@]4(O)C(C2)N(CC2CC2)CC[C@]314', 83.3),
  ('C=C1CC[C@@]2(O)C3Cc4ccc(OC(=O)CCCCCCCCCCC)c5c4[C@@]2(CCN3CC2CC2)[C@H]1O5 [Compound 59, reference compound]', 0.2);
